Target: BACE1 (Homo sapiens)
Construct: endogenous in cells
Sequence (P56817 46-501): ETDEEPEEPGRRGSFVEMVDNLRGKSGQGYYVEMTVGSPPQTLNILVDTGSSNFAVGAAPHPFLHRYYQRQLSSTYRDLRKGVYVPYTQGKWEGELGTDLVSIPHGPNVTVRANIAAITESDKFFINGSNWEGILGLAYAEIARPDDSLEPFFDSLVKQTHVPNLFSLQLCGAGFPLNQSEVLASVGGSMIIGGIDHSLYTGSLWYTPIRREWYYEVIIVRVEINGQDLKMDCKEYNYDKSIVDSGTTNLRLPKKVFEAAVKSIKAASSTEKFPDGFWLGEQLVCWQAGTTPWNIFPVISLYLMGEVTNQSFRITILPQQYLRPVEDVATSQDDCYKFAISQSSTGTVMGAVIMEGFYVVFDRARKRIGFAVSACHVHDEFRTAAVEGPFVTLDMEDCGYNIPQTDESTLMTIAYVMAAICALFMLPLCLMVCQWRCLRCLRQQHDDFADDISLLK
Assay: Cellular Aβ-lowering assay (Abeta 40 AlphaLISA)
Conditions: HEK293 APP cells; 18-20 hrs incubation; Aβ 40 in culture supernatants by AlphaLISA; read-out: BACE1 cell act. Aβ40 IC50
readout_type: pIC50
Give bare numbers, as −log10 of the molar value.

Worked set:
C[C@@]1(c2cc(-c3cncnc3)ccc2F)C[C@@H](C(F)(F)F)OC(N)=N1: 6.38
C[C@@]1(c2cc(-c3cccnc3F)c(F)cc2F)C[C@@H](C(F)(F)F)OC(N)=N1: 6.92
C[C@@]1(c2cc(C#Cc3ncc(Cl)cn3)ccc2F)C[C@@H](C(F)(F)F)OC(N)=N1: 7.11
C[C@@]1(c2cc(-c3cncnc3)c(F)cc2F)C[C@@H](C(F)(F)F)OC(N)=N1: 6.72
C[C@@]1(c2cc(C#Cc3ccc(Cl)cc3)ccc2F)C[C@@H](C(F)(F)F)OC(N)=N1: 5.84
C[C@@]1(c2cc(-c3cncc(Cl)n3)ccc2F)C[C@@H](C(F)(F)F)OC(N)=N1: 6.02

For each entry beneath this line, provide reported pIC50.
1. C[C@@]1(c2cc(C#Cc3cccnc3)ccc2F)C[C@@H](C(F)(F)F)OC(N)=N1
2. Cc1cc(C#Cc2ccc(F)c([C@]3(CF)C[C@@H](C(F)(F)F)OC(N)=N3)c2)sn1

[out]
[6.33, 6.57]

====

Target: BACE1 (Homo sapiens)
Construct: endogenous in cells
Assay: Cellular Aβ-lowering assay (Abeta 40 AlphaLISA)
Details: HEK293 APP cells; 18-20 hrs incubation; Aβ 40 in culture supernatants by AlphaLISA; read-out: BACE1 cell act. Aβ40 IC50
Description: Cellular Aβ-lowering assay: The Abeta 40 AlphaLISA Assay can be used. […] In a Perkin-Elmer White Optiplate-384 (Cat#6007290), 2 ul culture supernatants were combined with 2 μl of a 10× AlphaLISA Anti-hAβAcceptor beads+Biotinylated Antibody Anti-Aβ1-40 Mix (50 μg/mL/5 nM). […] Light Emission at 615 nm was then recorded using EnVision-Alpha Reader. Levels of Aβ 40 in the culture supernatants were calculated as percentage of maximum signal (cells treated with 1% DMSO without inhibitor). […]
readout_type: IC50 (nM)
One number for each entry, in nM.

Worked set:
Cc1cc(C#Cc2ccc(F)c([C@]3(C)C[C@@H](C(F)(F)F)OC(N)=N3)c2)sn1: 59
CC#Cc1cncc(-c2cc([C@]3(C)C[C@@H](C(F)(F)F)OC(N)=N3)c(F)cc2F)c1: 570
Cc1cc(F)c([C@]2(C)C[C@@H](C(F)(F)F)OC(N)=N2)cc1-c1cnccc1F: 1300
C[C@@]1(c2cc(C#Cc3ccc(C#N)cn3)ccc2F)C[C@@H](C(F)(F)F)OC(N)=N1: 59
C[C@@]1(c2cc(-c3cncnc3)cs2)C[C@@H](C(F)(F)F)OC(N)=N1: 2520

For each entry beneath this line, provide reported IC50.
1. C[C@]1(c2cc(NC(=O)c3ccc(C#N)cn3)ccc2F)N=C(N)O[C@H](C(F)(F)F)[C@@H]1F
2. C[C@@]1(c2sc(-c3cncc(Cl)c3)cc2Cl)C[C@@H](C(F)(F)F)OC(N)=N1

[out]
1. 10
2. 740

For each entry beneath this line, provide reported IC50.
1. C[C@]1(F)[C@H](C(F)(F)F)OC(N)=N[C@]1(C)c1cc(NC(=O)c2ccc(C#N)cn2)ccc1F
2. COc1cnc(C#Cc2ccc(F)c([C@]3(C)C[C@@H](C(F)(F)F)OC(N)=N3)c2)nc1
3. C[C@@]1(c2cc(C#Cc3cncc(Cl)c3)ccc2F)C[C@@H](C(F)(F)F)OC(N)=N1
4. C[C@@]1(c2cc(C#Cc3ccc(Cl)nc3)ccc2F)C[C@@H](C(F)(F)F)OC(N)=N1
5. COc1ncc(C#Cc2ccc(F)c([C@]3(C)C[C@@H](C(F)(F)F)OC(N)=N3)c2)cn1
6. COc1cc(C#N)cnc1C#Cc1ccc(F)c([C@]2(CF)C[C@@H](C(F)(F)F)OC(N)=N2)c1
7. C[C@]1(c2cc(NC(=O)c3ccc(C#N)cn3)ccc2F)N=C(N)O[C@@H](C(F)(F)F)[C@@H]1F

[out]
440
1670
1170
1920
5650
520
150

[in] Name the reported IC50 value associated with the compound C[C@]1(c2cc(NC(=O)c3ccc(C#N)cn3)ccc2F)N=C(N)O[C@H](C(F)(F)F)[C@@H]1OCC(F)(F)F
[out] 2
